# TARGET OR SYSTEM: glutamine synthetase (GS), S biotype
# Construct: native isoenzymes in crude leaf protein extract (rosette stage); isoforms not resolved
# ASSAY COMMENT: GS activity, crude leaf protein extract
# TEST CONTEXT: read-out: I50
MEASUREMENT KIND: IC50 (µM)
A number alone suffices; assume µM.

Lookup: Identify the reported IC50 for the following entry. CP(=O)(O)CCC(N)C(=O)O (stereo not shown) [glufosinate]
Found: 18.5

====

# TARGET OR SYSTEM: glutamine synthetase (GS), R1 biotype
# Construct: native isoenzymes in crude leaf protein extract (rosette stage); isoforms not resolved; described as glufosinate-sensitive
# ASSAY COMMENT: GS activity, crude leaf protein extract
# TEST CONTEXT: read-out: I50
MEASUREMENT KIND: IC50 (µM)
A number alone suffices; assume µM.

Lookup: Identify the reported IC50 for the following entry. CP(=O)(O)CCC(N)C(=O)O (stereo not shown) [glufosinate]
Found: 25.8

====

# Test system: acetolactate synthase (ALS), S biotype
# Construct: native enzyme in de-salted crude extract of young leaves
# ASSAY COMMENT: ALS activity, colorimetric acetoin at […] nm, de-salted leaf extract
# Assay type: biochemical, Epilobium ciliatum
# TEST CONTEXT: read-out: I50
MEASUREMENT KIND: IC50 (µM)
A number alone suffices; assume µM.

Lookup: Identify the reported IC50 for the following entry. `COc1cc(OC)nc(NC(=O)NS(=O)(=O)c2ncccc2C(F)(F)F)n1`
Found: 30.9

====

# TARGET OR SYSTEM: glutamine synthetase (GS), R2 biotype
# Construct: native isoenzymes in crude leaf protein extract (rosette stage)
# ASSAY COMMENT: GS activity, crude leaf protein extract
# TEST CONTEXT: stated gain, read-out: I50
MEASUREMENT KIND: pIC50
Scale: negative log10 of molar concentration, which is what pIC50 denotes.

Lookup: Identify the reported pIC50 for the following entry. CP(=O)(O)CCC(N)C(=O)O (stereo not shown) [glufosinate]
Found: 2.90
